// data source = PubChem BioAssay (NCI)

System: NCI-H460 lung
Assay summary: NCI-60 one-dose screen, 48 h (100 = growth as untreated, 0 = no growth, -100 = all killed)
Condition context: 10 µM unless noted
Method: Growth inhibition of the NCI-H460 human Non-Small Cell Lung tumor cell line is measured as a screen for anti-cancer activity. Cells are grown in 96 well plates and exposed to the test compound for 48 hours. Compounds are tested at a single concentration, which is 10^-5 M for most compounds. The reported endpoint is percent growth (GI% or GIPRCNT), where numbers from 0 - 100% represent growth inhibition, and numbers from -100% - 0 represent cell death. […]
About 83,000 compounds went through this panel and 20% of them were active in at least one assay; those are over-represented in the sample as a whole.
Grouping by measured growth is done with the following cut points: bottom: < -50%; middle: ≥ -50% and < 40%; top: ≥ 40%

- N#Cc1c(-c2ccc(Cl)cc2)nc(SCc2ccc(F)cc2)nc1N1CCNCC1: bottom
- NS(=O)(=O)c1cccc(Nc2nc(SCC(=O)c3ccc(Br)cc3)nc3ccccc23)c1: middle
- N#Cc1c(-c2ccc(Cl)cc2)nc(SCc2ccccc2)nc1N1CCNCC1: middle
- CC(C)NC(=O)c1cc(-c2ccc(NC(=O)Nc3ccc(N4CCOCC4)c(C(F)(F)F)c3)cc2)nc2cccnc12: top
- NS(=O)(=O)c1cccc(Nc2nc(SCC(=O)c3ccc([N+](=O)[O-])cc3)nc3ccccc23)c1: middle
- Clc1ccc2c(NCCCN3CCOCC3)c3oc4ccccc4c3nc2c1: middle
- COc1ccc(NC(=O)c2sc3nc(-c4cnccn4)cc(-c4cccs4)c3c2N)cc1: top
- C[C@@H]1CN(c2ccc3ncc(C#Cc4cncc(C(=O)Nc5ccc(CN6CCN(C)CC6)c(C(F)(F)F)c5)c4)n3n2)C[C@H](C)O1: bottom
- N/C(=N\c1nc2c(Br)cccc2s1)C(Br)Br: middle

====

Overview of reported growth across a group of compounds:
System: COLO 205 colon
Assay summary: NCI-60 one-dose screen, 48 h (100 = growth as untreated, 0 = no growth, -100 = all killed)
Condition context: 10 µM unless noted
This is part of a sample that, as a whole, favours compounds with a hit. Of some 83,000 tested, about 20% had one in any assay. The source made the active and inactive calls. The calls were made as follows: active = growth percent below 10; inactive = the rest.
Quantity kind: growth

• OC1CCN(CCCOc2c3ccc(Cl)cc3nc3c2oc2ccccc23)CC1 = -69% (active)
• COc1ccc([C@@H]2c3[nH]c4ccccc4c3CC3C(=O)N(C4CCN(Cc5c(F)cccc5F)CC4)CC(=O)N32)c(OC)c1 (some centres undefined) = 58.3% [5.26 µM] (inactive)
• Cc1ccc2c(n1)C(=O)C(Cl)=C(Nc1cccc(C(C)C)c1)C2=O = 112% (inactive)
• Nc1nc(N)c2c(n1)NC(c1ccc(C(F)(F)F)cc1)CC(c1ccc(Nc3nc(NCCO)nc(Nc4ccc(Cl)cc4)n3)cc1)=N2 (centres undefined) = 5.02% (active)
• COc1ccc(C(=O)/C=C/c2ccc(OCc3ccc(C)cc3)c(OC)c2)cc1OC = 95.3% (inactive)
• Cn1ccnc1C(=O)/C=C/c1ccc(NC(=O)Nc2ccc(F)cc2)cc1 = 49.5% (inactive)
• COc1cc(/C=C/C(=O)c2ccccc2)ccc1Oc1nc(NCCO)nc(N2CCOCC2)n1 = 116% (inactive)
• O=C1c2c(c3c4cccnc4[nH]c3c3ccc4ccccc4c23)C(=O)N1CCO = 78.4% (inactive)
• C=CCn1c(SCC(=O)c2ccccc2)nnc1-c1c[nH]c2ccccc12 = 122% (inactive)

====

System: EKVX NSCLC
Assay summary: NCI-60 one-dose screen, 48 h (100 = growth as untreated, 0 = no growth, -100 = all killed)
Condition context: 10 µM unless noted
This is part of a sample that, as a whole, favours compounds with a hit. Of some 83,000 tested, about 20% had one in any assay.
Catalogue of growth values
Quantity kind: growth (%)

• O=C(CCN1C(=O)/C(=C/c2ccccc2F)SC1=S)N1CCOCC1 = 86.8
• CC(=O)Nc1cc(F)cc(-c2ccc3[nH]cc(-c4ccccc4)c3n2)c1 = 43.7
• CC(C)Sc1nc(Nc2ccc(S(N)(=O)=O)cc2)c(C#N)c(-c2ccc(F)cc2)n1 = 50.9
• Nc1cc(-c2c[nH]c3ccccc23)nc2cc(-c3c[nH]c4ccccc34)nn12 = 74.5
• COc1cc(/C=C/C(=O)c2ccc(Cl)cc2)ccc1Oc1nc(NCCO)nc(N2CCOCC2)n1 = 99.6

====

Tested on: RXF 393 renal
Assay summary: NCI-60 one-dose screen, 48 h
Condition context: 10 µM unless noted
About 83,000 compounds went through this panel and 20% of them were active in at least one assay; those are over-represented in the sample as a whole. Calls of active or inactive are those of the source. How the source made its calls: active means growth percent below 10; inactive means the rest.
Possible outcomes: TRUE (active), FALSE (inactive)

- CCN1CCN(S(=O)(=O)c2oc(-c3ccc(Cl)cc3)nc2C#N)CC1: TRUE
- C#Cc1nc(C2=C(C)C(=O)/C(=N/OC(C)=O)C2)cs1: FALSE
- CCOC(=O)c1sc(N)c(C(=O)OCC)c1C: FALSE
- C#Cc1nc(C2=C(C)C(=N\O)/C(=N/O)C2)cs1: FALSE
- OC1CCN(CCCOc2c3ccc(Cl)cc3nc3c2oc2ccccc23)CC1: TRUE
- Clc1ccc2c(NCCCN3CCOCC3)c3oc4ccccc4c3nc2c1: FALSE

====

Test system: HS 578T breast
Assay summary: NCI-60 one-dose screen, 48 h
Condition context: 10 µM unless noted
About 83,000 compounds went through this panel and 20% of them were active in at least one assay; those are over-represented in the sample as a whole. The source made the active and inactive calls. How the source made its calls: active means growth percent below 10; inactive means the rest.
Labels: 1.0 for active, 0.0 for inactive

- Clc1ccc(-c2cn3cc(Cc4ccc(Cl)c(Cl)c4)sc3n2)cc1: 0.0
- COc1ccc(NC2=CC(=O)C(C)=C(C)C2=O)cc1: 0.0
- CCN1CCN(/C(=N\c2sc(-c3ccccc3)nc2-c2ccccc2)c2ccccc2)CC1: 0.0
- CN(C)CCCNc1c2ccccc2nc2c1oc1ccc(Cl)cc12: 0.0
- C=CCSc1ccc2c(c1)C(N1CCNCC1)=Nc1ccccc1O2: 0.0
- CC(O)C(NC(=O)C1CCCN1C(=O)CNC(=O)C1CC(=O)NCC(=O)NC(Cc2c[nH]c3ccccc23)C(=O)NC(Cc2ccc(O)cc2)C(=O)NCC(=O)NC(CO)C(=O)NC(CCC(N)=O)C(=O)NC(Cc2c[nH]c3ccccc23)C(=O)N1)C(=O)NCC(=O)NC(CCC(N)=O)C(=O)NC(CCCNC(=N)N)C(=O)NC(CC(=O)O)C(=O)O (stereo not drawn): 0.0
- CCOC(=O)c1csc(NC(=O)CSc2nc3sc4c(c3c(=O)n2-c2ccc(Cl)cc2)CCCC4)n1: 0.0
- COc1cc2nc(-c3ccc(C)cc3)cc(OCCCNCC3CCCO3)c2cc1OC (stereo not drawn): 0.0
- N[C@@H](Cc1cn(-c2c3ccccc3nc3ccccc23)nn1)C(=O)O: 0.0
- OC1CCN(CCCOc2c3ccc(Cl)cc3nc3c2oc2ccccc23)CC1: 1.0
- O=C(CSc1nc2sc3c(c2c(=O)n1-c1ccc(Cl)cc1)CCCC3)N/N=C/c1ccc(F)cc1: 0.0
- COc1ccc(C(=O)c2cc(C(=O)/C=C/c3c(Cl)cccc3Cl)c3cc(C)ccn23)cc1: 0.0
- COc1ccc(COc2ccc(/C=C3/C(=O)Nc4cc(Cl)ccc43)cc2)cc1: 0.0
- COC(=O)C(Cc1ccccc1)NS(=O)(=O)/N=C1\NC(=O)NC1=C(Cl)Cl (stereo not drawn): 0.0
- Cc1ccc2ccc3ccc(C)nc3c2n1.Cc1ccc2ccc3ccc(C)nc3c2n1.Oc1c(Cl)cc(Cl)c2ccc(CN3CCCCC3)nc12.[Ru]: 1.0
- COc1cc(/C=C/C(=O)c2cc(OC)c(OC)c(OC)c2)ccc1Oc1nc(NCCO)nc(N2CCOCC2)n1: 1.0
- Fc1ccc(-c2cc3nc(C(Cl)Cl)nc(-c4ccc(Cl)cc4)n3n2)cc1: 1.0
- CN1C(=O)N(c2ccccc2)C2N=C(N/N=C/c3ccccc3)SC21 (stereo not drawn): 1.0
- O=C(NNc1nc2cc(F)ccc2n2c(CN3CC4(COC4)C3)ccc12)c1cnccn1: 0.0
- Cc1ccccc1NC(=O)/C=C/c1ccc(OCCOc2ccc3c(C)cc(=O)oc3c2)cc1: 0.0
- O=C1/C(=C/C2=Cc3ccccc3OC2)SC(=S)N1c1ccc(F)cc1: 0.0
- COC(=O)c1ccc(NC(=S)N2CCc3ccc([N+](=O)[O-])cc3C2)cc1O: 0.0
- Cn1c(SCC(=O)Nc2ccc(-c3nc4ccc([N+](=O)[O-])cc4[nH]3)cc2)nc2ccccc2c1=O: 0.0
- CCCC(=O)NC(c1ccc2c(c1)OC(F)(F)O2)c1cc(C)c2cccnc2c1O (stereo not drawn): 0.0
- C#Cc1nc(C2=C(C)C(O)CC2)cs1 (stereo not drawn): 0.0
- COc1ccc2[nH]cc(-c3cc(N)n4nc(-c5c[nH]c6ccc(OC)cc56)cc4n3)c2c1: 0.0
- O=C(N/N=C/c1ccc(Cl)s1)c1[nH]c2ccc(Br)cc2c1-c1ccccc1: 0.0
- Cc1sc2nc(NCc3ccccc3Cl)[nH]c(=O)c2c1C: 0.0
- c1ccc2c(NCCCn3ccnc3)c3oc4ccccc4c3nc2c1: 0.0
- CS(=O)(=O)c1ccc(-c2nc3ccccn3c2C=Nc2ccc(Cl)cc2)cc1: 0.0
- CCN1C(=S)N(CC)C2C1NN=C1SC(c3ccccc3)=CC(=O)N12 (stereo not drawn): 0.0
- O=C1[C@H]2Cc3c([nH]c4ccccc34)[C@@H](c3ccc(Br)cc3)N2C(=O)CN1C1CCN(Cc2ccccc2)CC1: 0.0
- Clc1ccc2oc3c(NCCCn4ccnc4)c4ccccc4nc3c2c1: 0.0
- O=[N+]([O-])c1ccc(O)c2ncccc12: 0.0
- O=C1Nc2ccccc2Oc2ccc(S(=O)(=O)CC3CO3)cc21 (stereo not drawn): 0.0
- COc1ccc(-c2cc(C(=O)N=Nc3c(O)[nH]c4ccccc34)c3ccccc3n2)cc1OC: 0.0
- CC(=O)Nc1cc(F)cc(-c2ccc3[nH]cc(-c4ccccc4)c3n2)c1: 0.0
- Cc1nc(-c2cc3ccccc3oc2=O)ccc1C(=O)/C=C/c1ccccn1: 0.0
